# System: Proto-oncogene tyrosine-protein kinase receptor Ret (Homo sapiens), P07949 [V804L]
# Sequence (P07949 whole entry V804L): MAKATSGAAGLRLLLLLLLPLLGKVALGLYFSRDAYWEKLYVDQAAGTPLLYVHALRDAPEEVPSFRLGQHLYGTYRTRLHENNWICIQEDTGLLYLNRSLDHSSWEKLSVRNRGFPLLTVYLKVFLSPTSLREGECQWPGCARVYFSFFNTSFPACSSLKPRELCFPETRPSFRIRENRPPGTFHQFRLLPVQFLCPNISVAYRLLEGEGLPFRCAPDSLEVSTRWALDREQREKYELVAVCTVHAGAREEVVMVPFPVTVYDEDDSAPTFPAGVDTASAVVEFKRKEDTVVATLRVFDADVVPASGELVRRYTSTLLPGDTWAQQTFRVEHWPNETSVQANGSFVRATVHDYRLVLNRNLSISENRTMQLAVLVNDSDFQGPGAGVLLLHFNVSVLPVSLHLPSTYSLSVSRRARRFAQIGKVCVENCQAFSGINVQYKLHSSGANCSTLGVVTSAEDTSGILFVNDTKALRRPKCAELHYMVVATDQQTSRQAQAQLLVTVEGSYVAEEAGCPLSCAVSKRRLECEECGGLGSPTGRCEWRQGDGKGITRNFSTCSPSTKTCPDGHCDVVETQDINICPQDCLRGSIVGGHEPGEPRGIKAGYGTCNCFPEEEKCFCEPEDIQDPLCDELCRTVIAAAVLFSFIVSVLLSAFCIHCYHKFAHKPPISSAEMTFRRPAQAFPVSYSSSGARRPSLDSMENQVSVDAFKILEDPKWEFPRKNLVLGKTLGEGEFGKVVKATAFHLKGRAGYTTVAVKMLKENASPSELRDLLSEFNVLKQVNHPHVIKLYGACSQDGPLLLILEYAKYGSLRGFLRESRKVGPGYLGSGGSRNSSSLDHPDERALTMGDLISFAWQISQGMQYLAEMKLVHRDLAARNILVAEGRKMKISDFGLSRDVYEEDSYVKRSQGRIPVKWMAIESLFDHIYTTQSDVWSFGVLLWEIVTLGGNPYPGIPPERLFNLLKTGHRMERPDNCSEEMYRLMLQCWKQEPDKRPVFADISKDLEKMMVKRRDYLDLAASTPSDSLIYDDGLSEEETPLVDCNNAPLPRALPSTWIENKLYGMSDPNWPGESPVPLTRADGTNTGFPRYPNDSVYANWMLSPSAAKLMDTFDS
# study.conditions: at 1 µM
Catalogue of molecules with associated inhibition
Give the number; % is assumed, so skip it.

Solved entries:
{"molecule": "N#Cc1cccc(Nc2ncc(-c3ccccc3)o2)c1", "study.target": "Proto-oncogene tyrosine-protein kinase receptor Ret (Homo sapiens), P07949 [V804L]", "metric.name": "inhibition", "value.units": "%", "test.value": 14.4}
{"molecule": "CCn1c(-c2nonc2N)nc2cncc(C(=O)NCCNC)c21", "study.target": "Proto-oncogene tyrosine-protein kinase receptor Ret (Homo sapiens), P07949 [V804L]", "metric.name": "inhibition", "value.units": "%", "test.value": 17.1}
{"molecule": "Cc1cc(O)cc(C)c1/C=C/c1cncc(C(=O)OC(C)(C)C)c1", "study.target": "Proto-oncogene tyrosine-protein kinase receptor Ret (Homo sapiens), P07949 [V804L]", "metric.name": "inhibition", "value.units": "%", "test.value": 11.6}

Lookup result for `CS(=O)(=O)CCNCc1ccoc1-c1ccc2ncnc(Nc3ccc(OCc4ccccc4)cc3)c2c1` ; measured inhibition: 9.53

Lookup result for `Cc1cc(O)cc(C)c1/C=C/c1cncc(C(N)=O)c1` ; measured inhibition: 4.4

Lookup result for `COc1ccccc1-c1cc(/C=C2\C(=O)Nc3ncc(Br)cc32)cc(Br)c1O` ; measured inhibition: 12

Lookup result for `CNC(=O)c1cncc(/C=C/c2ccccc2C)c1` ; measured inhibition: 11.8

Lookup result for CC1=C(C(=O)Nc2ccc3[nH]ncc3c2)C(c2ccc(F)cc2)N=C(c2ccc(C(F)(F)F)nc2)N1 (stereo not given) ; measured inhibition: 26.6

Lookup result for `CS(=O)(=O)Nc1ccc(-c2ccc3c(NC(=O)C4CC4)n[nH]c3c2)cc1` ; measured inhibition: 8.77

Lookup result for `O=C1Nc2ccccc2/C1=C1\CCc2cc(O)ccc21` ; measured inhibition: 73.6

Lookup result for `NS(=O)(=O)c1ccc(N/N=C2\C(=O)Nc3ccc(C(=O)NCc4ccncc4)cc32)cc1` ; measured inhibition: 75.2

Lookup result for `CS(=O)(=O)CCNCc1ccc(-c2ccc3ncnc(Nc4ccc(OCc5ccccc5)cc4)c3c2)o1` ; measured inhibition: 11.9

Lookup result for `COc1c(C(N)=O)cc(-c2ccc(Cl)cc2)cc1-c1ccc(S(N)(=O)=O)cc1` ; measured inhibition: 9.45

Lookup result for `N#Cc1ccc2c(-c3ccnc(NC4CC4)n3)c(-c3ccc(F)cc3)nn2c1` ; measured inhibition: 2.65

---

# study.target: SRSF protein kinase 1 (Homo sapiens) (UniProt Q96SB4);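 further: values are mean percent inhibition of SRPK1 kinase, measured in the GSK PKIS screening panel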
# Sequence (Q96SB4 whole entry): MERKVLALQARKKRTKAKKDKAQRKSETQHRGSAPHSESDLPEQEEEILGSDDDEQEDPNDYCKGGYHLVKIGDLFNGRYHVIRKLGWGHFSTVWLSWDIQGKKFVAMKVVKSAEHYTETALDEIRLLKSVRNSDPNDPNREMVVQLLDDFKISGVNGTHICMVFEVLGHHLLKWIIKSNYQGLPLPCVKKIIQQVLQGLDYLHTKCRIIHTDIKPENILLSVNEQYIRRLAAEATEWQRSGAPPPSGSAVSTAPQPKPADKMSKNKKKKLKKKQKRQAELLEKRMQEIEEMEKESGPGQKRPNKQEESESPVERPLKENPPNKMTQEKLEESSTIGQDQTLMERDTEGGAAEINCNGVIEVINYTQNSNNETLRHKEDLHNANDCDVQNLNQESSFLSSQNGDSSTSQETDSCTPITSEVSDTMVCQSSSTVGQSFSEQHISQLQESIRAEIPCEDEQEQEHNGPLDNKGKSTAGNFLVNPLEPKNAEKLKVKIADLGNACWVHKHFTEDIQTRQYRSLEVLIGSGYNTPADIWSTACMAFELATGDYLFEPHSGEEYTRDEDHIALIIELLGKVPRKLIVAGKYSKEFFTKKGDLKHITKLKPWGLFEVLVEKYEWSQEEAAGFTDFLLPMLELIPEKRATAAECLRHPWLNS
# study.conditions: at 0.1 µM
Catalogue of compounds with associated inhibition
Give the number; % is assumed, so skip it.

Solved entries:
{"structure.smiles.string": "COc1c(C(N)=O)cc(-c2ccc(Cl)cc2)cc1-c1ccc(S(N)(=O)=O)cc1", "study.target": "SRSF protein kinase 1 (Homo sapiens) (UniProt Q96SB4)", "inhibition (%)": -3.03}
{"structure.smiles.string": "Cc1cc(O)cc(C)c1/C=C/c1cncc(C(N)=O)c1", "study.target": "SRSF protein kinase 1 (Homo sapiens) (UniProt Q96SB4)", "inhibition (%)": -2.4}
{"structure.smiles.string": "COc1cc(N2CCN(C(C)C)CC2)ccc1Nc1nc(Nc2cccc3ncccc23)c2cc[nH]c2n1", "study.target": "SRSF protein kinase 1 (Homo sapiens) (UniProt Q96SB4)", "inhibition (%)": -1.39}
{"structure.smiles.string": "Cc1c2ccc(N(C)c3ccnc(Nc4cccc(S(N)(=O)=O)c4)n3)cc2nn1C", "study.target": "SRSF protein kinase 1 (Homo sapiens) (UniProt Q96SB4)", "inhibition (%)": -1.71}
{"structure.smiles.string": "COC(=O)Nc1nc2cc(Oc3ccc(NC(=O)Nc4ccccc4)cc3)ccc2[nH]1", "study.target": "SRSF protein kinase 1 (Homo sapiens) (UniProt Q96SB4)", "inhibition (%)": -2.23}

Lookup result for `CS(=O)(=O)CCNCc1ccc(-c2ccc3ncnc(Nc4ccc(OCc5cccc(C(F)(F)F)c5)cc4)c3c2)o1` ; measured inhibition: -2
